- assayedSystem: T1, Human CD228 protein (human, UniProt P08582 20-708, limits assumed)
- T1 construct: Recombinant protein made in CHO cells, purified over a Ni column; The printed entry begins with the leader (MRGPSG...) and ends with ten His; also called hCD228; CD228-His protein
- T1 sequence: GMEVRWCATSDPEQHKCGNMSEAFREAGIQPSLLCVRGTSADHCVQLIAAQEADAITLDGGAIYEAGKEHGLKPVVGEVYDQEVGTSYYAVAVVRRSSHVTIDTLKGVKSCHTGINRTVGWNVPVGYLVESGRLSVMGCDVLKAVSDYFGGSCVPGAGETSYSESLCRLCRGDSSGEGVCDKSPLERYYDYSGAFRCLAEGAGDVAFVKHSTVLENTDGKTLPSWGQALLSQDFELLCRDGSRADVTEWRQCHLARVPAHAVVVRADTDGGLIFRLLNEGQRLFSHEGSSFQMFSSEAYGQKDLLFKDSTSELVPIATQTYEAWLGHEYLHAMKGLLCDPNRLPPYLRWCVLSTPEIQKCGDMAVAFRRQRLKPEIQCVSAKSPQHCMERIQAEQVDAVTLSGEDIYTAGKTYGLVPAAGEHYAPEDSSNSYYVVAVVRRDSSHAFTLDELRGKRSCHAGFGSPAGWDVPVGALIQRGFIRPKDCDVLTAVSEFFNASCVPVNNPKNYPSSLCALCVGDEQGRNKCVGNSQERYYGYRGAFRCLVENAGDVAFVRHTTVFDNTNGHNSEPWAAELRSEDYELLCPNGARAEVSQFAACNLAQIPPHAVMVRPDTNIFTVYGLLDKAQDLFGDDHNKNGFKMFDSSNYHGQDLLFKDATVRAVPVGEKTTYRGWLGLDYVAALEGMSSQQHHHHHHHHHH
- assayExplanation: Octet competition on His-chip CD228; competitor: CA518
- Protocol: CD228 proteins were immobilized on His chips at 10 μg/mL with a threshold of 0.5 nm. The first CD228 antibody (30 μg/mL) was immobilized, and the competitive binding of the second CD228 antibody (30 μg/mL) was analyzed. The Octet 8K system was used to analyze the response of antibody 2 and to determine whether antibody 1 and antibody 2 were in competition.
Entries and their Octet response value values follow.
Answer with a number only.

reference antibody hL49 (antibody, human IgG1, kappa, V domains shown, also called H149; hL49 analogy) VH: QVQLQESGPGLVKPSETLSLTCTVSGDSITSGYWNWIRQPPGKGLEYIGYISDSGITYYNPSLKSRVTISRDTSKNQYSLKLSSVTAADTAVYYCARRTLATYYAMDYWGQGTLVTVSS VL: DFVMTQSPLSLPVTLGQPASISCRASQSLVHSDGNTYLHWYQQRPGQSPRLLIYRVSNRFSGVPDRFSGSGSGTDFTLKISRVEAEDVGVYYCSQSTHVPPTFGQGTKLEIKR : 0.456

Proceeding to the next binder to report its Octet response value.
## Input Record request: Octet response value value, item CA518 (antibody, human IgG1, kappa, V domains shown, Intact IgG1) VH: EVQLVESGGGVVQPGRSLRLSCAASGFTFSSYAMHWVRQAPGKGLEWVAVISYDGSNKYHADSVKGRFTISRDNSKNTLFLQMNSLRAEDTAVYYCVRDVYHYGSRSPYYYGMDVWGQGTTVTVSS VL: DIQMTQSPSSVSASVGDRVTITCRASQGISSWLAWYQQKPGKAPKLLIYAASSLQSGVPSRFSGSGSGTDFTLTISSLQPEDVATYYCQKYNSAPFTFGPGTKVDIKR
## Output -0.0046
